Listing of entries alongside the reported binding signal.
molecular target: OsWRKY34 (Oryza sativa, UniProt Q0JBA9 1-250); test: protein-binding microarray (RPBM); PBS, 2% BSA, 51.3 ng/ul salmon testes DNA, 50 uM zinc acetate, 200 nM TF, 25 C, 1 h; high values mean tight binding; conditions: protein: recombinant; tags: N-terminal polyhistidine and DsRed monomer fusion (pET32a); label: CyDye5-dUTP incorporated in the synthesized complementary strand; 3' TTTTT single-stranded linker to array surface; dsDNA, one strand shown
Sequence (Q0JBA9 entry or part of it): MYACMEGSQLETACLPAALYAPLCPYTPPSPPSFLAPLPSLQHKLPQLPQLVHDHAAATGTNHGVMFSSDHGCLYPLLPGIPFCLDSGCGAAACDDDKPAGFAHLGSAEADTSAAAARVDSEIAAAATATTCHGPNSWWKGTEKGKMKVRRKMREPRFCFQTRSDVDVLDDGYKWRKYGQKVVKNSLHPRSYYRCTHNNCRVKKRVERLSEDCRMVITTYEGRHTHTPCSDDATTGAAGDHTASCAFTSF
Whole data set: some 68,000 sequences, median “fluorescence intensity (a.u.)” near 9,100, cut for the highest 2% near 16,000. What follows is part of a selection rich in the highest values, with near analogues and random picks from the rest.

Observe how each entry below is paired with its result.
1. CCTCCGCTTCTTCGCCGCCGCCGCCATCCCGCCCTAGCGACGGAGTCACCTAGTGCAG ... 9070 fluorescence intensity (a.u.)
2. TCTCGGGCCGAAACGGTCAACGCGTTTACCGGTGGCATAACGGAGTCACCTAGTGCAG ... 17500 fluorescence intensity (a.u.)
3. CGTTTGTTGGGTGCGGCGGGCGGGGAGGAGCTCGTGAATGCGGAGTCACCTAGTGCAG ... 19600 fluorescence intensity (a.u.)
4. ATCAACCAGTAATCAATTGACCAAGCGGTTCTTGCGCCTACGGAGTCACCTAGTGCAG ... 9780 fluorescence intensity (a.u.)

Continue with the next sequence.
Give a short answer stating reported binding signal for CCCACCAGGCCACCAAACTCTCTCGGGCCGAAACGGTCAACGGAGTCACCTAGTGCAG . 8380 fluorescence intensity (a.u.)

====

Parameter: binding signal. Scope: all listed entries.
molecular target: OsWRKY34 (Oryza sativa, UniProt Q0JBA9 1-250); assay: protein-binding microarray (RPBM); PBS, 2% BSA, 51.3 ng/ul salmon testes DNA, 50 uM zinc acetate, 200 nM TF, 25 C, 1 h; high values mean tight binding; settings: protein: recombinant; tags: N-terminal polyhistidine and DsRed monomer fusion (pET32a); label: CyDye5-dUTP incorporated in the synthesized complementary strand; 3' TTTTT single-stranded linker to array surface; dsDNA, one strand shown
In all, about 68,000 sequences were measured (“fluorescence intensity (a.u.)”: median about 9,100, highest 2% from about 16,000 on). Only a selection was taken, and the highest values are over-represented in it overall.

Consider the worked cases shown below.
1) CTGCTGCGAGGGTGGGTGTTGCTTGTACCGGGCGGGGATGCGGAGTCACCTAGTGCAG ... 20300 fluorescence intensity (a.u.)
2) TGCAAAGTAGTAGTTGGGGATTTAATAGTGGCTTACAATACGGAGTCACCTAGTGCAG ... 8620 fluorescence intensity (a.u.)
3) TTTGCTGCTGCTGCTTCTAGGGTTAGGGTTTGGGGTGGGGCGGAGTCACCTAGTGCAG ... 22100 fluorescence intensity (a.u.)
4) TGGGGTTGAGGGAGGGTGCCGCGGGTGGCTGGCGGAGGACCGGAGTCACCTAGTGCAG ... 10600 fluorescence intensity (a.u.)
5) CGGAGGGGTTGGGCTTGCGGGCGGCGTGTACCTTGTGCACCGGAGTCACCTAGTGCAG ... 9410 fluorescence intensity (a.u.)
6) CTGCGGCGAGAGGTGGGAGGCGGGGCGGTTGTACGTGTGCCGGAGTCACCTAGTGCAG ... 11000 fluorescence intensity (a.u.)

Read the entry TCTGAAGATGAGAGAGAGCTCACAGTTTATGGTTTTTGTACGGAGTCACCTAGTGCAG and write its reported binding signal. 8830 fluorescence intensity (a.u.)

Identify binding signal associated with the sequence GAGATGGAGGTGGAGGTGGTGGAGGGGACGACGATGGTGGCGGAGTCACCTAGTGCAG 9610 fluorescence intensity (a.u.)

Indicate the recorded binding signal value for this sequence: CGCACTGGCGGGGCTTGGAGCTGGGGTTTCTAGGGTTTGGCGGAGTCACCTAGTGCAG 8980 fluorescence intensity (a.u.)
